# TEST SYSTEM: IDO1 (Homo sapiens)
# Construct: HeLa cells were treated with a test compound in the presence of IFNγ, which induces IDO1 expression; host or cells: H1-HeLa cells, IDO1 induced with IFNγ
# ASSAY TEXT: Cell-based (HeLa) assay for measurement of IDO1 inhibition (kynurenine levels in supernatant after IFNγ induction)
# EXPERIMENTAL CONDITIONS: HeLa cells, IFNγ-induced IDO1, kynurenine in supernatant, 48 hour incubation; geometric mean of a minimum of four determinations
Parameter: EC50. Scope: all listed entries.
All answers are understood in µM, so give the number only.

Look up and state reported EC50 for "Cc1nnc(CNc2nc3nccc(/C(=N/O)Nc4ccc(F)c(Cl)c4)c3[nH]2)o1"
1.07

Look up and state reported EC50 for CC1CN(CCNc2nc3nccc(/C(=N/O)Nc4ccc(F)c(Cl)c4)c3[nH]2)C(C)CO1 (stereo not shown)
0.639

* * *

# TEST SYSTEM: IDO1 (Homo sapiens, UniProt P14902)
# Construct: HeLa cells were treated with a test compound in the presence of IFNγ, which induces IDO1 expression; host or cells: H1-HeLa cells, IDO1 induced with IFNγ
# Sequence (P14902 whole entry): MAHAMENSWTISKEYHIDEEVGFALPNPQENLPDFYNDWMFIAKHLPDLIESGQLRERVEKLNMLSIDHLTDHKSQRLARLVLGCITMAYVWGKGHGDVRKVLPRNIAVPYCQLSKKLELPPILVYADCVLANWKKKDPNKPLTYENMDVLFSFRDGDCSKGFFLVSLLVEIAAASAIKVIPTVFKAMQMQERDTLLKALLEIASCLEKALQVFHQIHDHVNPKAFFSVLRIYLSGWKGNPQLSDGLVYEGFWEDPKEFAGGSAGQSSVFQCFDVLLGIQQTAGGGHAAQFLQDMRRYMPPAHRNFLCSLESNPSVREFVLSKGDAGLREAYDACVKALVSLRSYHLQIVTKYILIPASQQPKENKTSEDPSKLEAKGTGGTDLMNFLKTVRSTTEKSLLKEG
# ASSAY TEXT: Cell-based (HeLa) assay for measurement of IDO1 inhibition (kynurenine levels in supernatant after IFNγ induction)
# EXPERIMENTAL CONDITIONS: HeLa cells, IFNγ-induced IDO1, kynurenine in supernatant after 48 hour incubation; geometric mean of a minimum of four determinations
EXPERIMENTAL ENDPOINT: EC50 (nM)
All answers are understood in nM, so give the number only.

As a guide, the following entries are already answered.
                                   compound  experimental_endpoint  display_unit  result_number
0  O/N=C(\Nc1ccc(F)c(Cl)c1)c1ccnc2nc(NCCN3CCOCC3)[nH]c12                   EC50            nM           1160
1  CN(C)Cc1nc2c(/C(=N/O)Nc3ccc(F)c(Cl)c3)cc(F)c(F)c2[nH]1                   EC50            nM            526
2  O/N=C(\Nc1ccc(F)c(Cl)c1)c1ccnc2nc(CNC3CCOCC3)[nH]c12                   EC50            nM           3430
3  O/N=C(\Nc1ccc(F)c(Cl)c1)c1ccnc2nc(C3CCCN3)[nH]c12 (centres unmarked)                   EC50            nM           4040
4  COCCCNc1nc2nccc(/C(=N/O)Nc3ccc(F)c(Cl)c3)c2[nH]1                   EC50            nM            698

Look up and state reported EC50 for "O/N=C(\Nc1ccc(F)c(Cl)c1)c1ccc(Br)c2nc[nH]c12"
660

Look up and state reported EC50 for "CCOC(=O)Nc1nc2nccc(/C(=N/O)Nc3ccc(F)c(Cl)c3)c2[nH]1"
423

Look up and state reported EC50 for "CC(C)(CO)CNCc1nc2nccc(/C(=N/O)Nc3ccc(F)c(Cl)c3)c2[nH]1"
7350

* * *

# TEST SYSTEM: IDO1 (Homo sapiens)
# Construct: HeLa cells were treated with a test compound in the presence of IFNγ, which induces IDO1 expression; host or cells: H1-HeLa cells, IDO1 induced with IFNγ
# ASSAY TEXT: Cell-based (HeLa) assay for measurement of IDO1 inhibition (kynurenine levels in supernatant after IFNγ induction)
# EXPERIMENTAL CONDITIONS: HeLa cells, IFNγ-induced IDO1, kynurenine in supernatant after 48 hour incubation; geometric mean of a minimum of four determinations
EXPERIMENTAL ENDPOINT: EC50 (nM)
All answers are understood in nM, so give the number only.

As a guide, the following entries are already answered.
>>> print(df.to_string())
                                   molecule  display_unit  result_number
0  CCc1nc2nccc(/C(=N/O)Nc3ccc(F)c(Cl)c3)c2[nH]1            nM           3190
1  O=S(=O)(NCc1nc2nccc(/C(=N/O)Nc3ccc(F)c(Cl)c3)c2[nH]1)c1ccccc1            nM           1410
2  O/N=C(\Nc1ccc(F)c(Cl)c1)c1ccnc2nc(NCCCN3CCOCC3)[nH]c12            nM            899
3  O/N=C(\Nc1ccc(F)c(C2CC2)c1)c1ccnc2nc[nH]c12            nM           1810
4  O/N=C(\Nc1ccc(F)c(Cl)c1)c1ccnc2nc(NC3CCOC3)[nH]c12 (stereo not drawn)            nM           2190

Look up and state reported EC50 for "CCNCc1nc2c(F)ccc(/C(=N/O)Nc3ccc(F)c(Cl)c3)c2[nH]1"
1670

Look up and state reported EC50 for "O/N=C(\Nc1cc(Br)ccc1F)c1ccnc2nc[nH]c12"
207

Look up and state reported EC50 for "O/N=C(\Nc1cccc(Br)c1)c1ccnc2nc(CCN3CCCC3)[nH]c12"
979

Look up and state reported EC50 for "Nc1nc2c(F)c(F)cc(/C(=N/O)Nc3cccc(Cl)c3)c2[nH]1"
607

Look up and state reported EC50 for "CN(C)CCc1nc2c(/C(=N/O)Nc3ccc(F)c(Br)c3)cc(F)c(F)c2[nH]1"
461

Look up and state reported EC50 for "CN(C)CCNCc1nc2nccc(/C(=N/O)Nc3ccc(F)c(Cl)c3)c2[nH]1"
6270

Look up and state reported EC50 for "O/N=C(\Nc1ccc(F)c(Cl)c1)c1ccnc2nc(NCCc3ccccc3)[nH]c12"
769
